Attribution: patent US9637496B2

Molecular target: human orexin 2 receptor (Homo sapiens (Human), UniProt O43614)
Sequence (O43614 whole entry): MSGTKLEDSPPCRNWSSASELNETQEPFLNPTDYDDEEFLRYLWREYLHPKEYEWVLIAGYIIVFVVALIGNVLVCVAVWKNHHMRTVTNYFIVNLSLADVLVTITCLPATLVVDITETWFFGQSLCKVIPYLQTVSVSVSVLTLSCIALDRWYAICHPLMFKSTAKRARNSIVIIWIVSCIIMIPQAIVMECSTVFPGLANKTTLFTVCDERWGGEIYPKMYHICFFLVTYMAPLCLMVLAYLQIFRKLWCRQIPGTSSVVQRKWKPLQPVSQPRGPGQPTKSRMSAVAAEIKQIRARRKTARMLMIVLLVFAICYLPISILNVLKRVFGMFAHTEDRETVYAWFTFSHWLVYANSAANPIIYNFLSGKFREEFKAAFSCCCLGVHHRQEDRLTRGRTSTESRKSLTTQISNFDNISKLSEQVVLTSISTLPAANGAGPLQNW
Test: Human orexin 2 receptor radioligand binding ([3H]-EMPA competition, HEK293 membranes)
Ki values by entry
endpoint_label: Ki (nM)

1. O=C(c1cccc(F)c1-c1ncccn1)N1[C@@H]2CC[C@H]1[C@H](Nc1ccc(C(F)(F)F)cn1)C2 [Example 279] = 990
2. O=C(c1ccccc1-c1cccs1)N1C2CCC1C(COc1ccc(F)cn1)C2 (racemic) [Example 11] = 13
3. O=C(c1cccc(F)c1-c1ncccn1)N1[C@@H]2CC[C@H]1[C@H](Nc1cnc(C(F)(F)F)cn1)C2 [Example 238] = 763

---

Molecular target: rat orexin 1 receptor (Rattus norvegicus (Rat), UniProt P56718)
Sequence (P56718 whole entry): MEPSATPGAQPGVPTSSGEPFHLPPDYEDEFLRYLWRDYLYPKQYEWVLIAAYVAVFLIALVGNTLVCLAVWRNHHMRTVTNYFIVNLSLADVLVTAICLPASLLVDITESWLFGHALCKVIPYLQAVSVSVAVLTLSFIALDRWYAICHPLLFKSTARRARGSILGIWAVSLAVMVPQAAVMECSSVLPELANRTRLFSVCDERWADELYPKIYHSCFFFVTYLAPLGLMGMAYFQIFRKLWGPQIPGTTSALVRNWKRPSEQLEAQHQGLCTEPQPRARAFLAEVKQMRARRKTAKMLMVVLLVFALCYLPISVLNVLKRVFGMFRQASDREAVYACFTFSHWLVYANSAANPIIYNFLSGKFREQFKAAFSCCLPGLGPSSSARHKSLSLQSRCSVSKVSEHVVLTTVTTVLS
Assay: Rat orexin 1 receptor radioligand binding (competitive binding, HEK293 membranes)
Details: read-out: rOX1 Ki
pKi: −log10 of the molar value.
endpoint_label: pKi

1. O=C(c1ccccc1-c1ncccn1)N1[C@@H]2CC[C@H]1[C@H](Nc1ccc(C(F)(F)F)cn1)C2 [Example 373] = 7.47
2. O=C(c1c(F)cccc1-c1ncco1)N1[C@@H]2CC[C@H]1[C@H](Nc1cnc(C(F)(F)F)cn1)C2 [Example 411] = 7.28
3. Cc1cccc(C(=O)N2[C@@H]3CC[C@H]2[C@H](Nc2cnc(C(F)(F)F)cn2)C3)c1-c1ncc(F)cn1 [Example 399] = 8.00
4. Cc1cccc(C(=O)N2[C@@H]3CC[C@H]2[C@H](Nc2ccc(Br)cn2)C3)c1-c1ncco1 [Example 302] = 8.30
5. Cc1ccc(-c2ncccn2)c(C(=O)N2[C@@H]3CC[C@H]2[C@H](Nc2ncc(C(F)(F)F)cc2F)C3)n1 [Example 456] = 7.17
6. O=C(c1cccc(F)c1-c1ncccn1)N1C2CCC1C(Nc1ccc(Br)cn1)C2 (stereo not drawn) [Example 303] = 7.66
7. O=C(c1ccccc1-c1ncc(F)cn1)N1[C@@H]2CC[C@H]1[C@H](Nc1cnc(C(F)(F)F)cn1)C2 [Example 397] = 7.30
8. Cc1cccc(C(=O)N2[C@@H]3CC[C@H]2[C@H](Nc2ncc(Br)cn2)C3)c1-n1nccn1 [Example 318] = 8.05
9. Cc1cccc(C(=O)N2[C@@H]3CC[C@H]2[C@H](Nc2cnc(Br)cn2)C3)c1-n1nccn1 [Example 312] = 8.22
10. Cc1ccc(-c2ncccn2)c(C(=O)N2[C@@H]3CC[C@H]2[C@H](Nc2ccc(C(F)(F)F)cn2)C3)n1 [Example 379] = 7.60
11. O=C(c1cccc(F)c1-c1ncc(F)cn1)N1[C@@H]2CC[C@H]1[C@H](Nc1ncc(C(F)(F)F)cc1F)C2 [Example 463] = 7.28
12. O=C(c1cccc(F)c1-n1nccn1)N1[C@@H]2CC[C@H]1[C@H](Nc1ccc(Br)cn1)C2 [Example 305] = 7.62
13. Cc1cccc(C(=O)N2[C@@H]3CC[C@H]2[C@H](Nc2ccc(Br)cn2)C3)c1-n1nccn1 [Example 306] = 7.96
14. O=C(c1cccc(Cl)c1-c1ncccn1)N1[C@@H]2CC[C@H]1[C@H](Nc1cnc(C(F)(F)F)cn1)C2 [Example 300] = 8.05
15. Cc1ccc(-n2nccn2)c(C(=O)N2[C@@H]3CC[C@H]2[C@H](Nc2ncc(C(F)(F)F)cc2F)C3)n1 [Example 451] = 7.09
